Test system: HCT-116
EXPERIMENT_SUMMARY: Cytotoxicity against human HCT116 cells
Assay type: functional, cell-based
QUANTITY_MEASURED: IC50

>  <TEST_SMILES>
CCC1=C[C@H]2CN(CCc3c([nH]c4ccc(Cl)cc34)[C@@](C(=O)OC)(c3cc4c(cc3OC)N(C)[C@H]3[C@@](O)(C(=O)OC)[C@H](OC(C)=O)[C@]5(CC)C=CCN6CC[C@]43[C@@H]65)C2)C1

>  <IC50>
0.07 µM

$$$$
>  <TEST_SMILES>
CC[C@]1(O)C[C@H]2CN(CCc3c([nH]c4ccc(OC)cc34)[C@@](C(=O)OC)(c3cc4c(cc3OC)N(C)[C@H]3[C@@](O)(C(=O)OC)[C@H](OC(C)=O)[C@]5(CC)C=CCN6CC[C@]43[C@@H]65)C2)C1

>  <IC50>
0.72 µM

$$$$
>  <TEST_SMILES>
CC[C@]1(O)C[C@H]2CN(CCc3c([nH]c4ccc(C#N)cc34)[C@@](C(=O)OC)(c3cc4c(cc3OC)N(C)[C@H]3[C@@](O)(C(=O)OC)[C@H](OC(C)=O)[C@]5(CC)C=CCN6CC[C@]43[C@@H]65)C2)C1

>  <IC50>
0.62 µM

$$$$

Proceeding to the next molecule to report its IC50.
Looking up CC[C@]1(O)C[C@H]2CN(CCc3c([nH]c4ccc(Cl)cc34)[C@@](C(=O)OC)(c3cc4c(cc3OC)N(C)[C@H]3[C@@](O)(C(=O)OC)[C@H](OC(C)=O)[C@]5(CC)C=CCN6CC[C@]43[C@@H]65)C2)C1 , I see its IC50 listed as 0.0076 µM

* * *

System: HCT-116
EXPERIMENT_SUMMARY: Cytotoxicity against human HCT116 cells
Assay type: functional, cell-based
Reported values of IC50 for individual entries
Returns: string containing the number followed by the unit.

>  <TEST_SMILES>
CCC1=C[C@H]2CN(CCc3c([nH]c4ccc(F)cc34)[C@@](C(=O)OC)(c3cc4c(cc3OC)N(C)[C@H]3[C@@](O)(C(=O)OC)[C@H](OC(C)=O)[C@]5(CC)C=CCN6CC[C@]43[C@@H]65)C2)C1

>  <IC50>
50 nM

$$$$
>  <TEST_SMILES>
CCC1=C[C@H]2CN(CCc3c([nH]c4ccc(C)cc34)[C@@](C(=O)OC)(c3cc4c(cc3OC)N(C)[C@H]3[C@@](O)(C(=O)OC)[C@H](OC(C)=O)[C@]5(CC)C=CCN6CC[C@]43[C@@H]65)C2)C1

>  <IC50>
65 nM

$$$$
>  <TEST_SMILES>
CCC1=C[C@H]2CN(CCc3c([nH]c4ccc(C#N)cc34)[C@@](C(=O)OC)(c3cc4c(cc3OC)N(C)[C@H]3[C@@](O)(C(=O)OC)[C@H](OC(C)=O)[C@]5(CC)C=CCN6CC[C@]43[C@@H]65)C2)C1

>  <IC50>
70 nM

$$$$

Attention now shifts to the item below.
Record CCC1=C[C@H]2CN(CCc3c([nH]c4ccc(O)cc34)[C@@](C(=O)OC)(c3cc4c(cc3OC)N(C)[C@H]3[C@@](O)(C(=O)OC)[C@H](OC(C)=O)[C@]5(CC)C=CCN6CC[C@]43[C@@H]65)C2)C1 , field IC50: 500 nM

* * *

Tested on: HCT-116
EXPERIMENT_SUMMARY: Cytotoxicity against human HCT116 cells
Type: functional, cell-based
QUANTITY_MEASURED: pIC50
pIC50 here: minus log base 10 of the concentration, concentration in moles per litre.

>  <TEST_SMILES>
CC[C@]1(O)C[C@H]2CN(CCc3c([nH]c4ccc(C)cc34)[C@@](C(=O)OC)(c3cc4c(cc3OC)N(C)[C@H]3[C@@](O)(C(=O)OC)[C@H](OC(C)=O)[C@]5(CC)C=CCN6CC[C@]43[C@@H]65)C2)C1

>  <REPORTED_RESULT>
8.11

$$$$
>  <TEST_SMILES>
CC[C@]1(O)C[C@H]2CN(CCc3c([nH]c4ccc(SC)cc34)[C@@](C(=O)OC)(c3cc4c(cc3OC)N(C)[C@H]3[C@@](O)(C(=O)OC)[C@H](OC(C)=O)[C@]5(CC)C=CCN6CC[C@]43[C@@H]65)C2)C1

>  <REPORTED_RESULT>
7.30

$$$$
>  <TEST_SMILES>
CCC1=C[C@H]2CN(CCc3c([nH]c4ccccc34)[C@@](C(=O)OC)(c3cc4c(cc3OC)N(C)[C@H]3[C@@](O)(C(=O)OC)[C@H](OC(C)=O)[C@]5(CC)C=CCN6CC[C@]43[C@@H]65)C2)C1

>  <REPORTED_RESULT>
7.12

$$$$
>  <TEST_SMILES>
CCC1=C[C@H]2CN(CCc3c([nH]c4ccc(I)cc34)[C@@](C(=O)OC)(c3cc4c(cc3OC)N(C)[C@H]3[C@@](O)(C(=O)OC)[C@H](OC(C)=O)[C@]5(CC)C=CCN6CC[C@]43[C@@H]65)C2)C1

>  <REPORTED_RESULT>
6.22

$$$$
>  <TEST_SMILES>
CCC1=C[C@H]2CN(CCc3c([nH]c4ccc(Br)cc34)[C@@](C(=O)OC)(c3cc4c(cc3OC)N(C)[C@H]3[C@@](O)(C(=O)OC)[C@H](OC(C)=O)[C@]5(CC)C=CCN6CC[C@]43[C@@H]65)C2)C1

>  <REPORTED_RESULT>
7.15

$$$$

Given item CCC1=C[C@H]2CN(CCc3c([nH]c4c(I)cccc34)[C@@](C(=O)OC)(c3cc4c(cc3OC)N(C)[C@H]3[C@@](O)(C(=O)OC)[C@H](OC(C)=O)[C@]5(CC)C=CCN6CC[C@]43[C@@H]65)C2)C1 , the value recorded as its pIC50 is 6.06

Record CCC1=C[C@H]2CN(CCc3c([nH]c4c(Cl)cccc34)[C@@](C(=O)OC)(c3cc4c(cc3OC)N(C)[C@H]3[C@@](O)(C(=O)OC)[C@H](OC(C)=O)[C@]5(CC)C=CCN6CC[C@]43[C@@H]65)C2)C1 . Reported pIC50: 6.06

pIC50 recorded for this compound, CCC1=C[C@H]2CN(CCc3c([nH]c4ccc(SC)cc34)[C@@](C(=O)OC)(c3cc4c(cc3OC)N(C)[C@H]3[C@@](O)(C(=O)OC)[C@H](OC(C)=O)[C@]5(CC)C=CCN6CC[C@]43[C@@H]65)C2)C1 , is 7.07

# pIC50 of CCC1=C[C@H]2CN(CCc3c([nH]c4c(Br)cccc34)[C@@](C(=O)OC)(c3cc4c(cc3OC)N(C)[C@H]3[C@@](O)(C(=O)OC)[C@H](OC(C)=O)[C@]5(CC)C=CCN6CC[C@]43[C@@H]65)C2)C1 = 6.13

* * *

log10 of IC50 values by entry
Test system: HCT-116
EXPERIMENT_SUMMARY: Cytotoxicity against human HCT116 cells
Type: functional, cell-based
Units before log transform: nM; reported quantity: IC50; transform: log10.

Sample answers from the record:
>  <TEST_SMILES>
CC[C@]1(O)C[C@H]2CN(CCc3c([nH]c4ccc(F)cc34)[C@@](C(=O)OC)(c3cc4c(cc3OC)N(C)[C@H]3[C@@](O)(C(=O)OC)[C@H](OC(C)=O)[C@]5(CC)C=CCN6CC[C@]43[C@@H]65)C2)C1

>  <TGT>
HCT-116

>  <log10 of IC50>
-0.10

$$$$
>  <TEST_SMILES>
CCC1=C[C@H]2CN(CCc3c([nH]c4c(F)cccc34)[C@@](C(=O)OC)(c3cc4c(cc3OC)N(C)[C@H]3[C@@](O)(C(=O)OC)[C@H](OC(C)=O)[C@]5(CC)C=CCN6CC[C@]43[C@@H]65)C2)C1

>  <TGT>
HCT-116

>  <log10 of IC50>
2.90

$$$$
>  <TEST_SMILES>
CC[C@]1(O)C[C@H]2CN(CCc3c([nH]c4c(Br)cccc34)[C@@](C(=O)OC)(c3cc4c(cc3OC)N(C)[C@H]3[C@@](O)(C(=O)OC)[C@H](OC(C)=O)[C@]5(CC)C=CCN6CC[C@]43[C@@H]65)C2)C1

>  <TGT>
HCT-116

>  <log10 of IC50>
1.90

$$$$

Consider CC[C@]1(O)C[C@H]2CN(CCc3c([nH]c4ccc(I)cc34)[C@@](C(=O)OC)(c3cc4c(cc3OC)N(C)[C@H]3[C@@](O)(C(=O)OC)[C@H](OC(C)=O)[C@]5(CC)C=CCN6CC[C@]43[C@@H]65)C2)C1 . Its measured log10 of IC50 is 1.78

So, CC[C@]1(O)C[C@H]2CN(CCc3c([nH]c4ccc(F)cc34)[C@@](C(=O)OC)(c3cc4c(cc3OC)N(C=O)[C@H]3[C@@](O)(C(=O)OC)[C@H](OC(C)=O)[C@]5(CC)C=CCN6CC[C@]43[C@@H]65)C2)C1 ? Its log10 of IC50 was 0.18

Kindly note the recorded log10 of IC50 for CC[C@]1(O)C[C@H]2CN(CCc3c([nH]c4ccc(Br)cc34)[C@@](C(=O)OC)(c3cc4c(cc3OC)N(C)[C@H]3[C@@](O)(C(=O)OC)[C@H](OC(C)=O)[C@]5(CC)C=CCN6CC[C@]43[C@@H]65)C2)C1 , which is 0.93

Value of log10 of IC50 reported for the molecule CCC1=C[C@H]2CN(CCc3c([nH]c4ccc(OC)cc34)[C@@](C(=O)OC)(c3cc4c(cc3OC)N(C)[C@H]3[C@@](O)(C(=O)OC)[C@H](OC(C)=O)[C@]5(CC)C=CCN6CC[C@]43[C@@H]65)C2)C1 is 2.81

log10 of IC50 reported for this molecule CC[C@]1(O)C[C@H]2CN(CCc3c([nH]c4c(F)cccc34)[C@@](C(=O)OC)(c3cc4c(cc3OC)N(C)[C@H]3[C@@](O)(C(=O)OC)[C@H](OC(C)=O)[C@]5(CC)C=CCN6CC[C@]43[C@@H]65)C2)C1 : 1.81

The molecule listed as CC[C@]1(O)C[C@H]2CN(CCc3c([nH]c4c(I)cccc34)[C@@](C(=O)OC)(c3cc4c(cc3OC)N(C)[C@H]3[C@@](O)(C(=O)OC)[C@H](OC(C)=O)[C@]5(CC)C=CCN6CC[C@]43[C@@H]65)C2)C1 shows log10 of IC50 equal to 1.90
